Reference source for all entries: patent US9115093B2

- experimental.system: neutrophil elastase (Homo sapiens)
- Sequence (P08246 30-247 limits assumed): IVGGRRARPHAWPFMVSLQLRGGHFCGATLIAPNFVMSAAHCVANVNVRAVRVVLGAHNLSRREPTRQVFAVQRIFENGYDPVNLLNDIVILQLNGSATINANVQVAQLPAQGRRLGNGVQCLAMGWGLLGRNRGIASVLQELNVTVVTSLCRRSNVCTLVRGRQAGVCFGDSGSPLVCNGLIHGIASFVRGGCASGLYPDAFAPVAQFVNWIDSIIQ
- assay.summary: Human Neutrophil Elastase Assay
- measurement.parameters: substrate MeOSuc-Ala-Ala-Pro-Val-AMC, pH 7.5, room temperature
assay.endpoint: IC50 (nM)
The reply should contain only the number, in nM.

• COC(=O)C1CC(=O)C2=C(C1)N(c1cccc(C(F)(F)F)c1)C(=O)NC2c1ccc(C#N)cc1 (centres unmarked) = 39.4

Q. Query (molecule): N#Cc1ccc(C2C3=C(CCCC3=O)N(c3cccc(C(F)(F)F)c3)C(=O)N2C(=O)N2CCOCC2)cc1 (centres unmarked) ; field requested: IC50
A. 63.3

Q. What does the data say about its IC50? Entry: N#Cc1ccc(C2NC(=O)N(c3cccc(C(F)(F)F)c3)C3=C2C(=O)CCC3)nc1 (centres unmarked)
A. 52.1

Q. Name the recorded IC50 for CN1C(=O)N(c2cccc(C(F)F)c2)C2=C(C(=O)CCC2)C1c1ccc(C#N)cc1S(C)(=O)=O (centres unmarked) .
A. 1.3

Q. Give the measured IC50 of N#Cc1ccc([C@@H]2C3=C(CCCC3=O)N(c3cccc(C(F)(F)F)c3)C(=O)N2CC(=O)O)cc1 [Example 32A] .
A. 4.6

Q. Look up IC50 for this molecule: CN1CCN(C(=O)N2C(=O)N(c3cccc(C(F)(F)F)c3)C3=C(C(=O)CCC3)C2c2ccc(C#N)cc2)CC1=O (centres unmarked)
A. 46.9

Q. Fill blank: measured IC50 of the molecule COC(=O)c1cc(S(=O)(=O)N2C(=O)N(c3cccc(C(F)(F)F)c3)C3=C(C(=O)CCC3)C2c2ccc(C#N)cc2)cs1 (centres unmarked) is ____.
A. 22

Q. Entry COCCCN1C(=O)N(c2cccc(C(F)(F)F)c2)C2=C(C(=O)CCC2)C1c1ccc(C#N)cc1 (centres unmarked) : reported IC50 = ?
A. 6.4

Q. Value lookup for IC50; key = N#Cc1ccc(C2C3=C(CCCC3=O)N(c3cccc(C(F)(F)F)c3)C(=O)N2S(=O)(=O)c2ccco2)cc1 (centres unmarked)
A. 15.6

Q. Please give the measured IC50 for this molecule: N#Cc1ccc(C2C3=C(CCCC3=O)N(c3cccc(C(F)(F)F)c3)C(=O)N2S(=O)(=O)c2cccnc2)cc1 (centres unmarked)
A. 22.3

Q. IC50 for N#Cc1ccc(C2NC(=O)N(c3cccc(C(F)F)c3)C3=C2C(=O)CCC3)cc1 (centres unmarked) ?
A. 23.2
